Data origin, for the record: patent US12227500B2

Assignment: determine reported remaining activity at 0.1 µM for the given molecules.
# Target: panel of 60 human kinases (Homo sapiens)
# Construct: purchased Reaction Biology Corp
# Sequence (P35916 25-1363): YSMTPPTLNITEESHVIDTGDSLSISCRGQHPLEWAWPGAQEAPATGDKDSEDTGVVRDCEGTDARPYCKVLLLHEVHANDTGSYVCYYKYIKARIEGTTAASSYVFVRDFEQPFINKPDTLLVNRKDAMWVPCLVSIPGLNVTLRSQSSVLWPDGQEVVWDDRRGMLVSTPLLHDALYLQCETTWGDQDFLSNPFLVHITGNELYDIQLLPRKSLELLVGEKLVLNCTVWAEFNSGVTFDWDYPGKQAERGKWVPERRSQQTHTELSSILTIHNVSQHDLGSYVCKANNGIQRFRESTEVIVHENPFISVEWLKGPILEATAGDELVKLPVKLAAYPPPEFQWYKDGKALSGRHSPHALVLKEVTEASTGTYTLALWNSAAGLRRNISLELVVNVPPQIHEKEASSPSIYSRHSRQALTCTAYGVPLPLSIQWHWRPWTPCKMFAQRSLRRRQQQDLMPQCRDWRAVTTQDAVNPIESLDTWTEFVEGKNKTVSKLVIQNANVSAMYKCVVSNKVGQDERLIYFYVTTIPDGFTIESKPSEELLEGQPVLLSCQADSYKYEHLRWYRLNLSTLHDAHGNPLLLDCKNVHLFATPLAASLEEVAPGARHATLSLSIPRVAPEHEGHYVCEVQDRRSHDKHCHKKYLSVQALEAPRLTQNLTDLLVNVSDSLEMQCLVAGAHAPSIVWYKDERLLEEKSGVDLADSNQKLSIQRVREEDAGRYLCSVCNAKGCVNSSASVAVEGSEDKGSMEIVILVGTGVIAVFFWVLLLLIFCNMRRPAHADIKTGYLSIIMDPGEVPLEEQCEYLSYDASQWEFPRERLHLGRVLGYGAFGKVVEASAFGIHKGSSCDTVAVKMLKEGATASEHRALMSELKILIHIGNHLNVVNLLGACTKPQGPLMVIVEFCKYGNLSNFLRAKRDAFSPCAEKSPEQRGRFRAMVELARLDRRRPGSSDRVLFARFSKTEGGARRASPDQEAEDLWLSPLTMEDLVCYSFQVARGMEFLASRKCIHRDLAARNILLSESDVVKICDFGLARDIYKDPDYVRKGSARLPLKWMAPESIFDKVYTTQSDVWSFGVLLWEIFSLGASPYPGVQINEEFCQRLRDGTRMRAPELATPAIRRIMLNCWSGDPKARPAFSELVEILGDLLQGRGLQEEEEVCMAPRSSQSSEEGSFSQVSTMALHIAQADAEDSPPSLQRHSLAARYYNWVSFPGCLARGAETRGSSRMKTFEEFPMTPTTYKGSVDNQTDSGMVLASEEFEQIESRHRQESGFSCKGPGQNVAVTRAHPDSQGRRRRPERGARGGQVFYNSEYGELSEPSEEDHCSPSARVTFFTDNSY
# Test Protocol: Radiolabeled ATP kinase assay, panel of 60 kinases (Table S5)
# Assay type: biochemical
# Particulars: FLT4/VEGFR3; 0.1 μM; 10 μM ATP; read-out: % Enzyme Activity (relative to DSMO controls)
Give bare numbers, in %.

>>> value_observed("COc1ccccc1-c1c[nH]c2ncc(-c3ccc(CN4CCN(C)CC4)cc3)cc12 [Compound 7at]")
79.8
>>> value_observed("Cc1nn(C)c(C)c1-c1c[nH]c2ncc(-c3ccc(CN4CCN(C)CC4)cc3)cc12 [Compound 7ai]")
60.3
>>> value_observed("CN1CCN(Cc2ccc(-c3cnc4[nH]cc(-c5ccc6[nH]ccc6c5)c4c3)cc2)CC1 [Compound 1, reference compound]")
34.5

Required: remaining activity at 0.1 µM, one value per molecule below.
1. CN1CCN(Cc2ccc(-c3cnc4[nH]cc(-c5ccc6c(c5)OCCO6)c4c3)cc2)CC1 [Compound 7d]
2. CN1CCN(Cc2ccc(-c3cnc4[nH]cc(-c5cccc(Cl)c5)c4c3)cc2)CC1 [Compound 7ad]
3. CN1CCN(Cc2ccc(-c3cnc4[nH]cc(-c5ccoc5)c4c3)cc2)CC1 [Compound 7w]
4. CN1CCN(Cc2ccc(-c3cnc4[nH]cc(-c5cnn(Cc6ccccc6)c5)c4c3)cc2)CC1 [Compound 7ah]
5. CN1CCN(Cc2ccc(-c3cnc4[nH]cc(-c5ccncc5)c4c3)cc2)CC1 [Compound 7n]
6. CN1CCN(Cc2ccc(-c3cnc4[nH]cc(-c5ccccc5Cl)c4c3)cc2)CC1 [Compound 7as]

1: 39; 2: 80.5; 3: 64.6; 4: 34; 5: 66; 6: 23.2
